Parameter: IC50. Scope: all listed entries.
target: PI3Kδ (Homo sapiens (Human)); test: TR-FRET enzymatic assay of PI3K isoforms; settings: 2× Km ATP, 30 minutes at 25° C.
Sequence (O00329 whole entry, canonical isoform): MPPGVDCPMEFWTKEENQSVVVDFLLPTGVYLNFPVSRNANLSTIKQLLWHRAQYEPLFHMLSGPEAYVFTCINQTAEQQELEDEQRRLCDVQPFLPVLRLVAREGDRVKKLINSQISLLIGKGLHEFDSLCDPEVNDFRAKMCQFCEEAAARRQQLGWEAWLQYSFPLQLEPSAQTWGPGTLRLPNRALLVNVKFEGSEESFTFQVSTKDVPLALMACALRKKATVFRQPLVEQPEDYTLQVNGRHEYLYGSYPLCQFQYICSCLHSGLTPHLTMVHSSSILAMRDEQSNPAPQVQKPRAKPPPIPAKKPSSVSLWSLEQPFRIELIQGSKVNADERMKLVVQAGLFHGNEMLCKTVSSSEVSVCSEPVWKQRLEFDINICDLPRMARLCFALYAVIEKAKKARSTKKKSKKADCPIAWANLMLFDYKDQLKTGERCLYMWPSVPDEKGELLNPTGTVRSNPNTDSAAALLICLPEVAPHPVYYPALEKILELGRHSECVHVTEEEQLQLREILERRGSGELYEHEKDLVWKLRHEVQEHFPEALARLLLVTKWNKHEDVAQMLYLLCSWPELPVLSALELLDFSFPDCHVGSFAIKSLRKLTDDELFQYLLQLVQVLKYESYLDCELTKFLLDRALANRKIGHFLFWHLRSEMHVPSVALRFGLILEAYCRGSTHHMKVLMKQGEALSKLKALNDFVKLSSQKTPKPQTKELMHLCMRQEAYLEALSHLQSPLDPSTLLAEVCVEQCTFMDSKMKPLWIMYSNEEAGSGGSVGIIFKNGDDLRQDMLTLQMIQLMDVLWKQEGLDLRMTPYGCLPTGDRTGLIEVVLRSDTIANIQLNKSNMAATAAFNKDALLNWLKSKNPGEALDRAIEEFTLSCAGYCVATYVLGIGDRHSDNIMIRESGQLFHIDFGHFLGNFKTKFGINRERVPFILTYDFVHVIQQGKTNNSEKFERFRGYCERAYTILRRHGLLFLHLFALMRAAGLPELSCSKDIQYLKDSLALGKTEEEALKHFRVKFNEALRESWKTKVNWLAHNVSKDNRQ
Sequence (P27986 whole entry partner, canonical isoform): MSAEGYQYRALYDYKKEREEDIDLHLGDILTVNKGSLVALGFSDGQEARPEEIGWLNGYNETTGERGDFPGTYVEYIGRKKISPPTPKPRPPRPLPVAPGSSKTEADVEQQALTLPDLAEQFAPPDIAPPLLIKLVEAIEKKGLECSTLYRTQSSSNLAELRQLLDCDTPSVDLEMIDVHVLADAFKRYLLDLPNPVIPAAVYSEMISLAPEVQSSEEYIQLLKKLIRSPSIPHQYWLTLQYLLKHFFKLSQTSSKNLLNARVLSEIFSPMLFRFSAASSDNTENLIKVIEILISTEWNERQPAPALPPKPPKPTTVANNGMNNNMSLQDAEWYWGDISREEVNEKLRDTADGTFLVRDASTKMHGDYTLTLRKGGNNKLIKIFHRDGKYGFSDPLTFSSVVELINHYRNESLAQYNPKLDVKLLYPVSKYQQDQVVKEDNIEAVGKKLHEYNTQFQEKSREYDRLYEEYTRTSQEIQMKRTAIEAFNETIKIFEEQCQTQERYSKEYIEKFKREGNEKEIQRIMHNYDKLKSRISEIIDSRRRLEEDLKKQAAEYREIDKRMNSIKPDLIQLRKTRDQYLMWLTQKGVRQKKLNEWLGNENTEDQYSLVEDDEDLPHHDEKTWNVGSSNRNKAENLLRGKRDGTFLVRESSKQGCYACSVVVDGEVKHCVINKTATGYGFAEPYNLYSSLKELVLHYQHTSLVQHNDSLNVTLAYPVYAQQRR

COMPOUND | IC50
C[C@H](Nc1nc(N)nc(N)c1C#N)c1nc2c(F)ccc(Cl)c2c(=O)n1C1[C@H]2CNC[C@@H]12 (stereo partly drawn) [Compound 17] | 4 nM
Cc1nc(N)nc(N[C@@H](C)c2nc3c(F)ccc(Cl)c3c(=O)n2C2[C@H]3CNC[C@@H]23)c1C#N (stereo partly drawn) [Compound 16] | 6 nM
C[C@H](Nc1nc(N)nc(N)c1C#N)c1nc2cccc(Cl)c2c(=O)n1[C@@H]1CCCNC1 [Compound 27] | 830 nM

---

biological target: PI3Kγ (Homo sapiens (Human)); test: TR-FRET enzymatic assay of PI3K isoforms; details: 2× Km ATP, 30 minutes at 25° C.
Sequence (P48736 whole entry, canonical isoform): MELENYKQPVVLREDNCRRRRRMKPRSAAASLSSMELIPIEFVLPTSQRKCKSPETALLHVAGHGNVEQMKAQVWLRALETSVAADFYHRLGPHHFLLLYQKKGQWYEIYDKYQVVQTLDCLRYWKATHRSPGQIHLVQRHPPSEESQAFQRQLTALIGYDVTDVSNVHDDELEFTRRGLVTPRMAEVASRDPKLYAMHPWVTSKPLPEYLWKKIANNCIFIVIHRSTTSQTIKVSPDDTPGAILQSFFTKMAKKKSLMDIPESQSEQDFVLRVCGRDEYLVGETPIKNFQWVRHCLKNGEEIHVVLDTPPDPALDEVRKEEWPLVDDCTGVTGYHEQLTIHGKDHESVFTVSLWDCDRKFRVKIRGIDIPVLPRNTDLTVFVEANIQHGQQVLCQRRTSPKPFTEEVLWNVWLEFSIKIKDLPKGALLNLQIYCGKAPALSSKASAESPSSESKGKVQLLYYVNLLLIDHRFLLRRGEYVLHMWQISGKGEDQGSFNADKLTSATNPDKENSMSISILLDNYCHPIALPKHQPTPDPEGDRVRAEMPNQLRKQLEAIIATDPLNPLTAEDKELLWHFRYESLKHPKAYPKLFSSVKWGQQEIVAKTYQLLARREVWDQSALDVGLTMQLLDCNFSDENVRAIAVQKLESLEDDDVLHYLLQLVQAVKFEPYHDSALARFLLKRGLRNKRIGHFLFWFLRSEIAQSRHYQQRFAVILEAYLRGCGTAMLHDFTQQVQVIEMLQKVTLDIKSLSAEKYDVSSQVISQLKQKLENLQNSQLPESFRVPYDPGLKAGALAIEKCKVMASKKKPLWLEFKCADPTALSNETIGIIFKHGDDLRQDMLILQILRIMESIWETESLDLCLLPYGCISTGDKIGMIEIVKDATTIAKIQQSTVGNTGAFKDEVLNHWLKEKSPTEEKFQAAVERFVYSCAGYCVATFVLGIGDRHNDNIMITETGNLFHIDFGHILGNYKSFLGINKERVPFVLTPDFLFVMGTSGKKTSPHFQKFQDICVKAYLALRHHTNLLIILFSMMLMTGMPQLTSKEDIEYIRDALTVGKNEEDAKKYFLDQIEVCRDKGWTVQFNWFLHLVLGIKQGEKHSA
Sequence (Q8WYR1 whole entry partner, canonical isoform): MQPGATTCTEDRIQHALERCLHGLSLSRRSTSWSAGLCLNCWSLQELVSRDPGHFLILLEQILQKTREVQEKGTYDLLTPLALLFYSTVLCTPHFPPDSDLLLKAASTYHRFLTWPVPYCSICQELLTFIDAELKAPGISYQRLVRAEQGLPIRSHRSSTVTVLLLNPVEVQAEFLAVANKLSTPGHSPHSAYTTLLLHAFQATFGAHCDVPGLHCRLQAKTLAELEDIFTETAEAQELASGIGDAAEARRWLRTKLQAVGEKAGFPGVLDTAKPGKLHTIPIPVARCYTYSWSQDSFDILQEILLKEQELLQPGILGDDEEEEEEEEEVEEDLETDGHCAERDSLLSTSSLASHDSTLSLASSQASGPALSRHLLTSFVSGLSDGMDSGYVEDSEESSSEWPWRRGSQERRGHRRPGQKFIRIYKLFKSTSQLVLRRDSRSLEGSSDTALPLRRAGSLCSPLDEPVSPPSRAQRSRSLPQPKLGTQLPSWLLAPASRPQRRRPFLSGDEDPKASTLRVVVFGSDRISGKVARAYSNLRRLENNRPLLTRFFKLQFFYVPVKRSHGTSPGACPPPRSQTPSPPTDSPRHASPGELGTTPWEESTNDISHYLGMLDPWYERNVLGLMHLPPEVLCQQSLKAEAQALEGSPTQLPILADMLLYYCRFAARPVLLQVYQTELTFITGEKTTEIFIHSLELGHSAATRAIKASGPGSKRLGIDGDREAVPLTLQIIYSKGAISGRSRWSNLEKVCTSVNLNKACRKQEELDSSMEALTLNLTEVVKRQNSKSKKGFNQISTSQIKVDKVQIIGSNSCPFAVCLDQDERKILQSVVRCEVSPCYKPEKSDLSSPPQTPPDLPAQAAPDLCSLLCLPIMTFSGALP
METRIC: IC50 (nM)

MOLECULE | METRIC | INEQUALITY SYMBOL | RESULT NUMBER
C[C@H](Nc1nc(N)nc(N)c1C#N)c1nc2c(F)ccc(Cl)c2c(=O)n1C1[C@H]2CNC[C@@H]12 (stereo partly drawn) | IC50 | = | 2800
Cc1nc(N)nc(N[C@@H](C)c2nc3c(F)ccc(Cl)c3c(=O)n2C2[C@H]3CNC[C@@H]23)c1C#N (stereo partly drawn) | IC50 | = | 2600
C[C@H](Nc1nc(N)nc(N)c1C#N)c1nc2cccc(Cl)c2c(=O)n1[C@@H]1CCCNC1 | IC50 | > | 10000
